Quick reference: % Inhibition of the listed items.
Test system: α-amylase
Assay: α-amylase enzyme inhibition assay (starch, dinitro-salicylic acid, 540 nm)
Type: biochemical
Settings: 500 µg/mL, Table 8 (MCu series)
result_type: % Inhibition

{"compound": "CN(C)C(=N)NC(=N)N=Cc1ccccc1O.CN(C)C(=N)NC(=N)N=Cc1ccccc1O.O.O.O.O.O.O=S(=O)([O-])[O-].[Cu+2]", "assay_result": "44.56 ± 0.34%"}
{"compound": "C=NC(=N)NC(=N)N(C)C.C=NC(=N)NC(=N)N(C)C.O.O.O.O.O.O=S(=O)([O-])[O-].[Cu+2]", "assay_result": "31.46 ± 0.23%"}
{"compound": "CN(C)C(=N)NC(=N)N=Cc1ccccc1.CN(C)C(=N)NC(=N)N=Cc1ccccc1.O.O.O.O.O.O=S(=O)([O-])[O-].[Cu+2]", "assay_result": "43.71 ± 0.17%"}
{"compound": "C[C@H]1O[C@H](O[C@H]2[C@H](O)[C@@H](O)[C@@H](O[C@H]3[C@H](O)[C@@H](O)C(O)O[C@@H]3CO)O[C@@H]2CO)[C@H](O)[C@@H](O)[C@@H]1N[C@H]1C=C(CO)[C@@H](O)[C@H](O)[C@H]1O (stereo partly shown) [Acarbose, reference compound]", "assay_result": "67.52 ± 0.34%"}

====

Quick reference: % Inhibition of the listed items.
Tested on: α-amylase
Assay: α-amylase enzyme inhibition assay (starch, dinitro-salicylic acid, 540 nm)
Format: biochemical
Details: 1000 µg/mL, Table 9 (MZn series)
Protocol: All derivatives of metformin were analyzed for serum amylase inhibitory activity using the Yukihoko Hara method. Three test tubes were labeled as blank (B), test (T), and control (C). Then, 2.5 mL of phosphate buffer (pH 6.8) was added to each test tube. […] The intensity of reddish orange was read at 540 nm. The percentage inhibitory action of serum amylase was calculated using the following formula:Percentage inhibition = OD of control − OD of test tube/OD of control × 100.

{"compound": "C[C@H]1O[C@H](O[C@H]2[C@H](O)[C@@H](O)[C@@H](O[C@H]3[C@H](O)[C@@H](O)C(O)O[C@@H]3CO)O[C@@H]2CO)[C@H](O)[C@@H](O)[C@@H]1N[C@H]1C=C(CO)[C@@H](O)[C@H](O)[C@H]1O (stereo partly shown) [Acarbose, reference compound]", "% Inhibition (%)": 91.71}
{"compound": "CN(C)C(=N)NC(=N)N=Cc1ccccc1.CN(C)C(=N)NC(=N)N=Cc1ccccc1.O.O.O.O.O.O=S(=O)([O-])[O-].[Zn+2]", "% Inhibition (%)": 82.60}
{"compound": "CN(C)C(=N)NC(=N)N=CC=Cc1ccccc1.CN(C)C(=N)NC(=N)N=CC=Cc1ccccc1.O.O.O.O.O.O=S(=O)([O-])[O-].[Zn+2]", "% Inhibition (%)": 78.57}
{"compound": "CC(C)=NC(=N)NC(=N)N(C)C.CC(C)=NC(=N)NC(=N)N(C)C.O.O.O.O.O.O=S(=O)([O-])[O-].[Zn+2]", "% Inhibition (%)": 58.35}

====

Quick reference: % Inhibition of the listed items.
System: α-amylase
Test: α-amylase enzyme inhibition assay (starch, dinitro-salicylic acid, 540 nm)
Assay type: biochemical
Conditions: 500 µg/mL, Table 9 (MZn series)
result_type: % Inhibition (%)

{"molecule": "CN(C)C(=N)NC(=N)N=Cc1ccccc1.CN(C)C(=N)NC(=N)N=Cc1ccccc1.O.O.O.O.O.O=S(=O)([O-])[O-].[Zn+2]", "assay_result": 55.54}
{"molecule": "CN(C)C(=N)NC(=N)N=Cc1ccccc1O.CN(C)C(=N)NC(=N)N=Cc1ccccc1O.O.O.O.O.O.O=S(=O)([O-])[O-].[Zn+2]", "assay_result": 69.32}
{"molecule": "CN(C)C(=N)NC(=N)N=C(c1ccccc1)C(O)c1ccccc1.CN(C)C(=N)NC(=N)N=C(c1ccccc1)C(O)c1ccccc1.O.O.O.O.O.O=S(=O)([O-])[O-].[Zn+2] (centres unmarked)", "assay_result": 38.64}
{"molecule": "CC(C)=NC(=N)NC(=N)N(C)C.CC(C)=NC(=N)NC(=N)N(C)C.O.O.O.O.O.O=S(=O)([O-])[O-].[Zn+2]", "assay_result": 37.60}
{"molecule": "C=NC(=N)NC(=N)N(C)C.C=NC(=N)NC(=N)N(C)C.O.O.O.O.O.O=S(=O)([O-])[O-].[Zn+2]", "assay_result": 31.49}

Reference source for all entries: paper PMC9919699
